In this section, each of the molecules is paired with its reported pIC50.
target: LC3B (Homo sapiens); test: Fluorescence Polarization (FP) Assay: displacement of FITC-labeled peptide from GST-LC3B; assay type: binding; conditions: Fluorescence Polarization assay; GST-LC3B 180 nM, FITC-labeled peptide 18 nM, 25° C.; read-out: IC50
pIC50: −log10 of the molar value.

Consider the reported pIC50 for these molecules:
CC1(C#N)C(=O)C(=CNCCN2CCN(CCO)CC2)C(=O)CC1c1ccccc1 (stereo not drawn) = 4.82 to 5.52
CN(C)C=C1C(=O)C(C)(c2ccccc2)C1=O (stereo not drawn) = 3.00 to 4.00
O=C1Nc2c(cccc2-c2ccccc2)C(=O)/C1=C\NCCN1CCN(CCO)CC1 = 4.82 to 5.52
O=C1CC(c2ccccc2)C(F)C(=O)/C1=C/O (stereo not drawn) = 4.82 to 5.52
O=C1COCC(=O)C1=CNCCN1CCN(CCO)CC1 = 3.00 to 4.00

**Q:** Quick one: pIC50 of O=C1CC(c2cccc([N+](=O)[O-])c2)CC(=O)C1=CO (stereo not drawn) ?
**A:** 4.82 to 5.52

**Q:** Quick one: pIC50 of O=C1CN(c2ccccc2)CC(=O)C1=CNCCN1CCN(CCO)CC1 ?
**A:** 4.00 to 4.82

**Q:** Quick one: pIC50 of CN(C)CCNC=C1C(=O)CC(c2ccccc2N)CC1=O (stereo not drawn) ?
**A:** > 5.52

**Q:** Quick one: pIC50 of Cc1cccc(CNC=C2C(=O)CC(c3ccccc3)CC2=O)n1 (stereo not drawn) ?
**A:** 4.82 to 5.52
